Please respond with reported Percent Effect for every item in the list.
# System: Mycobacterium tuberculosis
# experimental-protocol: Cornell M. t heat shock assay; further: in the data most compounds retested in dose-response had high values
# Format: functional, organism-based
# Set-up: dose or concentration left out as unconfirmed
Hit rate of the full screen: of about 69,000 compounds, about 950 (1.4%) showed an effect of 50% or more. For the sample, strong results were picked, then their nearest neighbours and some compounds at random.
Give bare numbers, in %.

# example entries with known answers
compound	Percent Effect [%]
O=C(NC1CC1)[C@H]1C[C@@H]2CCN(CCc3ccccc3)C[C@H]2O1.O=C(O)C(F)(F)F	-1.701
CCCS(=O)(=O)N1CC(=O)N(Cc2cccc(OC)c2OC)CC(O)C1 (centres undefined)	3.552
CCS(=O)(=O)N1CC(=O)N(CCOc2ccccc2)CC(O)C1 (centres undefined)	-13.04
CCCS(=O)(=O)N1CC(=O)N(Cc2ccccc2OC)CC(O)C1 (centres undefined)	56.43
Nc1ncc2c(n1)CN(C1CCCC1)C2=O	101.8

Below are some compounds; for each one, tell me its Percent Effect.
1. COc1ccccc1CN1CC(OC)CN(C(=O)CC(C)C)CC1=O (centres undefined)
2. Cc1ccc2c(c1)CN(C(=O)c1ccncc1)C(CN(C)C)CO2.Cl (centres undefined)
3. CCCS(=O)(=O)N1CC(=O)N(CCCc2ccccc2)CC(O)C1 (centres undefined)
4. CS(=O)(=O)N1CC(=O)N(CCCc2ccccc2)CC(O)C1 (centres undefined)
5. COc1ccccc1CN1CC(O)CN(C(=O)OCC(C)C)CC1=O (centres undefined)
6. Cl.O=C1CC2(CCNCC2)C(=O)N1Cc1ccc(F)cc1
7. CC(C)c1ccc(CN2C(=O)C3(CCNCC3)Nc3ccccc32)cc1
8. O=C(COc1ccccc1)N1C[C@@H]2COC[C@]2(COc2cccnc2)C1.O=C(O)C(F)(F)F

-13.24
-12.12
-29.16
-9.009
1.526
-13.65
76.57
12.4

Give Mycobacterium tuberculosis Percent Effect for COc1cccc(OC)c1CN1CC(O)CN(S(C)(=O)=O)CC1=O (centres undefined)
55.83

====

# System: Mycobacterium tuberculosis
# experimental-protocol: Cornell M. t heat shock assay; further: in the data most compounds retested in dose-response had high values
# Format: functional, organism-based
# Set-up: dose or concentration left out as unconfirmed
The whole screen tested about 69,000 compounds, of which about 950 (1.4%) showed an effect of 50% or more. Shown is part of a subset that was picked to be rich in strong results.
Please respond with reported Percent Effect for every item in the list.
One number for each entry, in %.

# example entries with known answers
molecule	measured-attribute	unit-string	measured-number
Cc1ccc(C(=O)N2C[C@@H]3OCCN(CCN4CCCC4)[C@@H]3C2)cn1.O=C(O)C(F)(F)F	Percent Effect	%	8.47
CN1CCCC(c2cccc(-c3cccc(Cl)c3)n2)C1 (stereo not given)	Percent Effect	%	-13.07
Cn1cnc2c1CCN(Cc1csc(-c3ccc(F)cc3)n1)C2	Percent Effect	%	1.572
Cn1cnc2c1CCN(Cc1csc(-c3ccccc3)n1)C2	Percent Effect	%	-8.138

# input for lookup
Tell me the measured Percent Effect of Cn1cc(-c2nc(CN3CCc4c(ncn4C4CC4)C3)cs2)cn1 , please.
19.08

====

# Test system: Mycobacterium tuberculosis
# experimental-protocol: Cornell M. t heat shock assay; further: in the data most compounds retested in dose-response had high values
# Type: functional, organism-based
# Set-up: dose or concentration left out as unconfirmed
Out of some 69,000 compounds screened, about 950 (1.4%) showed an effect of 50% or more. Only a selection was taken, and strong results are over-represented in it overall.
measured-attribute: Percent Effect (%)
Answers are plain numbers, in %.

# example entries with known answers
compound	Percent Effect, %
Cn1cc(CN2CCC3(CC2)CCN(C(=O)c2cscn2)CC3)cn1.O=C(O)C(F)(F)F	-25.9
CCc1nnc(CN(C)Cc2cccc(C(=O)Nc3ccnn3C)c2)o1	2.892
Cc1ncsc1-c1nnc(C2CCCN2C(=O)CCn2cccn2)o1 (stereo not given)	13.77
Cc1ccc(CNC2CCc3[nH]c(=O)ccc3C2)cc1C.O=C(O)C(F)(F)F (stereo not given)	-33.52

# input for lookup
Give Mycobacterium tuberculosis Percent Effect for CC(NC(=O)c1cccc(CN2CCN(C)CC2)c1)c1ccccn1 (stereo not given)
-15.12
